Target: Yes (h) (Homo sapiens, UniProt P07947)
Sequence (P07947 whole entry): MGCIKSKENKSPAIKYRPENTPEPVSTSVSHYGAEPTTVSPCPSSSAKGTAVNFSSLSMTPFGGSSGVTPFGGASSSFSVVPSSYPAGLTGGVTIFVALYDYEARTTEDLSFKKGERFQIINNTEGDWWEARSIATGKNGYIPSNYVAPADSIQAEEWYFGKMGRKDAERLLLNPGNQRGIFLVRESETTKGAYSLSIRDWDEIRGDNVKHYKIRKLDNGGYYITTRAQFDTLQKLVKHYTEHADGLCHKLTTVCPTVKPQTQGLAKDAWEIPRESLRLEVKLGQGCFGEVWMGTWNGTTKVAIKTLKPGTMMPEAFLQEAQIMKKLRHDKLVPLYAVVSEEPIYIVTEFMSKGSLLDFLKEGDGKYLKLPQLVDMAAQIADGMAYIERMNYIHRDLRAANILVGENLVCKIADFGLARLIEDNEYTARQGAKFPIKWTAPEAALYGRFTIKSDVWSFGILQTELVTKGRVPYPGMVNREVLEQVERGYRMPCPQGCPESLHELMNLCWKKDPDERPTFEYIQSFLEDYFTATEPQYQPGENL
Assay: Yes human kinase assay (glass-fiber filter)
Type: biochemical
Conditions: test concentration of 10^−6M
Method: In the glass-fiber filter technology the activity of the kinase of interest is measured using an appropriate substrate that is incubated with the aforementioned kinase protein in the presence of (^33P) radiolabeled ATP. (^33P) Phosphorylation of the substrate is subsequently measured as radioactivity bound on a glass fiber-filter. All kinases are pre-diluted to a 10× working concentration prior to addition into the assay. The composition of the dilution buffer for each kinase is detailed below. […]
endpoint_label: C11 score (inhibition of Yes human)

Ask: # C11 score (inhibition of Yes human) lookup, item COc1ccc2cc1OCCCCCCCOc1ccc(Br)cc1Nc1cc(ncn1)N2
Result: 1 (Score 1=10-30% inhibition)

Ask: How about this compound: COc1cc2cc(c1)OCCCCCCOc1ccc(Br)cc1Nc1cc(ncn1)N2
Result: 4 (Score 4=>80% inhibition)

Ask: How about this compound: COc1ccc2cc1OCCCCCCOc1ccc(Br)cc1Nc1cc(ncn1)N2
Result: 1 (Score 1=10-30% inhibition)

Ask: How about this compound: COc1ccc2cc1OCCNC(=O)[C@@H]1CCCN1Cc1cc(F)c(Cl)cc1Nc1nc(ncc1C#N)N2
Result: 4 (Score 4=>80% inhibition)

Ask: How about this compound: Cl.Cl.O=C1CNC(=O)Cc2ccc(Cl)cc2Nc2cc(ncn2)Nc2ccc(OCCCN3CCOCC3)c(c2)OCCN1
Result: 4 (Score 4=>80% inhibition)

Ask: How about this compound: COc1ccc2cc1OCCCNC(=O)[C@@H]1CCCN1Cc1cc(F)c(Cl)cc1Nc1nc(ncc1C#N)N2
Result: 2 (Score 2=30-60% inhibition)

Ask: How about this compound: COc1ccc2cc1OCCCNC(=O)[C@H](CC(C)C)NC(=O)Cc1ccc(Cl)cc1Nc1cc(ncn1)N2
Result: 4 (Score 4=>80% inhibition)

Ask: How about this compound: COc1ccc2cc1OCCCCCCCCOc1ccc(Br)cc1Nc1cc(ncn1)N2
Result: 1 (Score 1=10-30% inhibition)
